- measurement target: JAK1-JH1JH2 (Homo sapiens (Human), UniProt P23458)
- Sequence (P23458 574-1154): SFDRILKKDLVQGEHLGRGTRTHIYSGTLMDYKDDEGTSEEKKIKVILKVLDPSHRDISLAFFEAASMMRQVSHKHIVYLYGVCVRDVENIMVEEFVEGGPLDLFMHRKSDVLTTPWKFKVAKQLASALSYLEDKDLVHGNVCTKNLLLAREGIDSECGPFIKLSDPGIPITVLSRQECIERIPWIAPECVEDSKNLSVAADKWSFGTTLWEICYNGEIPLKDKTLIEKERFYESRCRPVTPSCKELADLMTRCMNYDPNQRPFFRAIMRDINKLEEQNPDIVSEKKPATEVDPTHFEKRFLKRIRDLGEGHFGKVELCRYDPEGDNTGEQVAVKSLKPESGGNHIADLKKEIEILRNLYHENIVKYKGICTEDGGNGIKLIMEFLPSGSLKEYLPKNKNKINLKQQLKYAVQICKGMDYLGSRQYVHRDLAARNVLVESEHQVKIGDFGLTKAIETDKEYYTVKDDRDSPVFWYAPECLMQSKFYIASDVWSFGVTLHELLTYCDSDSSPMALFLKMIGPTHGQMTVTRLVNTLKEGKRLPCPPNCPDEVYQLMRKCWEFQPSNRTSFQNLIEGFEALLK
- test protocol: Enzymatic inhibition assay (HTMS)
- Assay type: biochemical
- conditions used: 12.5 μM ATP; read-out: JAK1_JH1JH2 IC50
pIC50: −log10 of the molar value.
Form field: pIC50 (one value per entry).
assay metric: pIC50

>>> result("CC(C)(O)CNC(=O)Cc1nc2cnc3[nH]ccc3c2n1[C@H]1CC[C@H](CC#N)CC1")
9.40
>>> result("N#CC[C@H]1CC[C@H](n2c(CC(=O)Nc3cc[nH]n3)nc3cnc4[nH]ccc4c32)CC1")
9.40
>>> result("N#CC[C@H]1CC[C@H](n2c(CC(=O)NCC3CCOCC3)nc3cnc4[nH]ccc4c32)CC1")
10.00
>>> result("N#CCC12CCC(NC(=O)Cc3nc4cnc5[nH]ccc5c4n3[C@H]3CC[C@H](CC#N)CC3)(CC1)C2")
9.00
>>> result("N#CC[C@H]1CC[C@H](n2c(CC(=O)NCC3(O)CCC3)nc3cnc4[nH]ccc4c32)CC1")
9.40
>>> result("N#CCCNC(=O)Cc1nc2cnc3[nH]ccc3c2n1[C@H]1CC[C@H](CC#N)CC1")
10.00
>>> result("N#CC[C@H]1CC[C@H](n2c(CC(=O)NCC3(O)CC3)nc3cnc4[nH]ccc4c32)CC1")
9.05
>>> result("N#CC[C@H]1CC[C@H](n2c(CC(=O)NC3CCOCC3)nc3cnc4[nH]ccc4c32)CC1")
9.52
>>> result("N#CC[C@H]1CC[C@H](n2c(CC(=O)NCC3CC3)nc3cnc4[nH]ccc4c32)CC1")
9.70
>>> result("Cn1cc(NC(=O)Cc2nc3cnc4[nH]ccc4c3n2[C@H]2CC[C@H](CC#N)CC2)cn1")
9.70
>>> result("CC(C)(C#N)CNC(=O)Cc1nc2cnc3[nH]ccc3c2n1[C@H]1CC[C@H](CC#N)CC1")
9.70

---

- measurement target: JAK3-JH1JH2 (Homo sapiens (Human), UniProt P52333)
- Sequence (P52333 512-1124): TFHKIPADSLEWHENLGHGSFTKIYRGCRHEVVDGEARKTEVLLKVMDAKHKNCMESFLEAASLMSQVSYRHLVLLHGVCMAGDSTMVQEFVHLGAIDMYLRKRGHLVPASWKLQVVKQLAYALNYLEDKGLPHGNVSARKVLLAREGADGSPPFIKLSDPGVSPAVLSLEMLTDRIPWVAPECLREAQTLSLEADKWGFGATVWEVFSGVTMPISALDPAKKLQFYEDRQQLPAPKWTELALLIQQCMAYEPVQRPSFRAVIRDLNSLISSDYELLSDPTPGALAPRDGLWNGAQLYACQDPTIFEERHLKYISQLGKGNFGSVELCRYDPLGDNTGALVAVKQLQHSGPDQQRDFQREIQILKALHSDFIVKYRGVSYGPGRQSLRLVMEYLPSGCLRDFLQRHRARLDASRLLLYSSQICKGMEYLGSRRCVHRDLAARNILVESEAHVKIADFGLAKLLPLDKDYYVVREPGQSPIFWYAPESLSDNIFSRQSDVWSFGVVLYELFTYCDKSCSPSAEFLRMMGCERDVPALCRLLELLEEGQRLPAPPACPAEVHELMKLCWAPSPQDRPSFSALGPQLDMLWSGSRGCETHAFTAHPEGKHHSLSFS
pIC50: −log10 of the molar value.
assay metric: pIC50

>>> result("N#CCCNC(=O)Cc1nc2cnc3[nH]ccc3c2n1[C@H]1CC[C@H](CC#N)CC1 [Ex. 4]")
7.02
>>> result("Cn1cc(NC(=O)Cc2nc3cnc4[nH]ccc4c3n2[C@H]2CC[C@H](CC#N)CC2)cn1 [Ex. 9]")
7.10
>>> result("N#CC[C@H]1CC[C@H](n2c(CC(=O)NC3CCOCC3)nc3cnc4[nH]ccc4c32)CC1 [Ex. 5]")
7.64
>>> result("N#CC[C@H]1CC[C@H](n2c(CC(=O)NCC3(O)CCC3)nc3cnc4[nH]ccc4c32)CC1 [Ex. 8]")
7.12

---

Form field: Papp(B-A)/Papp(A-B) efflux ratio (one value per entry).
- System: MDCK-MDR1 cell line
- test protocol: MDCK-MDR1 permeability assay
- Format: in vitro ADME
- conditions used: MDCK-MDR1, @ 5 μM
assay metric: Papp(B-A)/Papp(A-B) efflux ratio

>>> result("CC(C)(O)CNC(=O)Cc1nc2cnc3[nH]ccc3c2n1[C@H]1CC[C@H](CC#N)CC1 [Ex. 1]")
3.3
>>> result("N#CC[C@H]1CC[C@H](n2c(CC(=O)NC3CCOCC3)nc3cnc4[nH]ccc4c32)CC1 [Ex. 5]")
"> 4.5"
>>> result("N#CC[C@H]1CC[C@H](n2c(CC(=O)NCC3CCOCC3)nc3cnc4[nH]ccc4c32)CC1 [Ex. 6]")
"> 8.7"
>>> result("N#CC[C@H]1CC[C@H](n2c(CC(=O)NCC3CC3)nc3cnc4[nH]ccc4c32)CC1 [Ex. 3]")
"> 33"

---

- measurement target: UniProt:O60674
- Sequence (O60674 532-1132): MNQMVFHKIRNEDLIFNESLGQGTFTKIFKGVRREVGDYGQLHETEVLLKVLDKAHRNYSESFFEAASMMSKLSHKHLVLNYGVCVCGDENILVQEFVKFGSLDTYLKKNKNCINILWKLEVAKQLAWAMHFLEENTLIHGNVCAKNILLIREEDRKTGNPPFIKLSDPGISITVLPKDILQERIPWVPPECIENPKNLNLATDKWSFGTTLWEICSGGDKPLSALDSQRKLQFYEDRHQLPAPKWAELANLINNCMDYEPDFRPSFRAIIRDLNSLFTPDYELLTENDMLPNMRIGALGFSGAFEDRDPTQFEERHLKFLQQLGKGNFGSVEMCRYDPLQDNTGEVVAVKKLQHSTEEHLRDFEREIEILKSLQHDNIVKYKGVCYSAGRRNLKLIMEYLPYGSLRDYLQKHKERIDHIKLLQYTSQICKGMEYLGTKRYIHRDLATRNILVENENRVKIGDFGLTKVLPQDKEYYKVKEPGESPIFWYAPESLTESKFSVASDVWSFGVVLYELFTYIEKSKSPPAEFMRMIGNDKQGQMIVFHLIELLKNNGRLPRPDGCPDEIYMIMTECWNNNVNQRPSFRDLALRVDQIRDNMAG
- test protocol: Enzymatic inhibition assay (HTMS)
- Format: biochemical
- conditions used: 30 μM ATP; read-out: JAK2_I_JH1JH2 IC50
Form field: IC50 (one value per entry).
assay metric: IC50 (nM)

>>> result("N#CC[C@H]1CC[C@H](n2c(CC(=O)NCC3(O)CCC3)nc3cnc4[nH]ccc4c32)CC1")
7
>>> result("N#CC[C@H]1CC[C@H](n2c(CC(=O)NC3CCOCC3)nc3cnc4[nH]ccc4c32)CC1")
2.1
>>> result("N#CCC12CCC(NC(=O)Cc3nc4cnc5[nH]ccc5c4n3[C@H]3CC[C@H](CC#N)CC3)(CC1)C2")
6.5
>>> result("N#CC[C@H]1CC[C@H](n2c(CC(=O)NCC3CCOCC3)nc3cnc4[nH]ccc4c32)CC1")
1.4
>>> result("CC(C)(C#N)CNC(=O)Cc1nc2cnc3[nH]ccc3c2n1[C@H]1CC[C@H](CC#N)CC1")
5.6
>>> result("CC(C)(O)CNC(=O)Cc1nc2cnc3[nH]ccc3c2n1[C@H]1CC[C@H](CC#N)CC1")
8.6
>>> result("N#CC[C@H]1CC[C@H](n2c(CC(=O)NCC3(O)CC3)nc3cnc4[nH]ccc4c32)CC1")
9.4
>>> result("N#CC[C@H]1CC[C@H](n2c(CC(=O)NCC3CC3)nc3cnc4[nH]ccc4c32)CC1")
6.2
>>> result("N#CCCNC(=O)Cc1nc2cnc3[nH]ccc3c2n1[C@H]1CC[C@H](CC#N)CC1")
6.6

---

- test protocol: physchem
- conditions used: pH 6.5, fassif, thermodynamic from solid
assay metric: solubility (µM)

>>> result("CC(C)(C#N)CNC(=O)Cc1nc2cnc3[nH]ccc3c2n1[C@H]1CC[C@H](CC#N)CC1")
81
>>> result("CC(C)(O)CNC(=O)Cc1nc2cnc3[nH]ccc3c2n1[C@H]1CC[C@H](CC#N)CC1")
387
>>> result("N#CCC12CCC(NC(=O)Cc3nc4cnc5[nH]ccc5c4n3[C@H]3CC[C@H](CC#N)CC3)(CC1)C2")
359
>>> result("N#CC[C@H]1CC[C@H](n2c(CC(=O)NC3CCOCC3)nc3cnc4[nH]ccc4c32)CC1")
198
>>> result("N#CC[C@H]1CC[C@H](n2c(CO)nc3cnc4[nH]ccc4c32)CC1")
75
